Biological target: GABA-A receptor
Test: 35S-TBPS binding assay (GABAA receptor binding ability test)
Settings: rat cerebral cortex cell membrane, 5 μM GABA, 2 nM 35S-TBPS; read-out: 35S-TBPS bindng test: IC50 on inhibiting the TBPS binding activity
Protocol: 1.2 Experimental Procedures 1.2.1 Extraction of Cerebral Cortex Cell Membrane: 1. The cerebral cortex of male Sprague-Dawley rat was isolated. 2. […] 9. The protein concentration was measured by the bicinchoninic acid (BCA) method. […] 11. 40 μL of scintillation solution was added to each well, and the CPM value was read with TopCount. […] In the experiment, the CPM (counts per minute) value was read with TopCount. […]
Property label: pIC50
# reply with the number alone; pIC50 is -log10 of concentration in mol/L

Output pIC50 of `C[C@@H]1C[C@H](C(=O)Cn2cc(C(F)(F)F)cn2)[C@@]2(C)CC[C@H]3[C@@H](CC[C@@H]4C[C@](C)(O)CC[C@@H]43)[C@H]12`
8.21

For `C[C@@]1(O)CC[C@H]2[C@H](CC[C@@H]3[C@@H]2CC[C@@]2(C)[C@H]3[C@@H]3C[C@@H]3[C@@H]2C(=O)Cn2cc(C(F)(F)F)cn2)C1` , write its pIC50.
7.87

Provide only the value of recorded pIC50 for `CSc1cnn(CC(=O)[C@H]2[C@H]3C[C@H]3[C@H]3[C@@H]4CC[C@@H]5C[C@](C)(O)CC[C@@H]5[C@H]4CC[C@@]32C)c1`
7.34
